Measured pIC50 of individual entries
# test_system: BRM (Homo sapiens)
# Construct: made in house; host or cells: High Five insect cells
# Sequence (P51531 whole entry): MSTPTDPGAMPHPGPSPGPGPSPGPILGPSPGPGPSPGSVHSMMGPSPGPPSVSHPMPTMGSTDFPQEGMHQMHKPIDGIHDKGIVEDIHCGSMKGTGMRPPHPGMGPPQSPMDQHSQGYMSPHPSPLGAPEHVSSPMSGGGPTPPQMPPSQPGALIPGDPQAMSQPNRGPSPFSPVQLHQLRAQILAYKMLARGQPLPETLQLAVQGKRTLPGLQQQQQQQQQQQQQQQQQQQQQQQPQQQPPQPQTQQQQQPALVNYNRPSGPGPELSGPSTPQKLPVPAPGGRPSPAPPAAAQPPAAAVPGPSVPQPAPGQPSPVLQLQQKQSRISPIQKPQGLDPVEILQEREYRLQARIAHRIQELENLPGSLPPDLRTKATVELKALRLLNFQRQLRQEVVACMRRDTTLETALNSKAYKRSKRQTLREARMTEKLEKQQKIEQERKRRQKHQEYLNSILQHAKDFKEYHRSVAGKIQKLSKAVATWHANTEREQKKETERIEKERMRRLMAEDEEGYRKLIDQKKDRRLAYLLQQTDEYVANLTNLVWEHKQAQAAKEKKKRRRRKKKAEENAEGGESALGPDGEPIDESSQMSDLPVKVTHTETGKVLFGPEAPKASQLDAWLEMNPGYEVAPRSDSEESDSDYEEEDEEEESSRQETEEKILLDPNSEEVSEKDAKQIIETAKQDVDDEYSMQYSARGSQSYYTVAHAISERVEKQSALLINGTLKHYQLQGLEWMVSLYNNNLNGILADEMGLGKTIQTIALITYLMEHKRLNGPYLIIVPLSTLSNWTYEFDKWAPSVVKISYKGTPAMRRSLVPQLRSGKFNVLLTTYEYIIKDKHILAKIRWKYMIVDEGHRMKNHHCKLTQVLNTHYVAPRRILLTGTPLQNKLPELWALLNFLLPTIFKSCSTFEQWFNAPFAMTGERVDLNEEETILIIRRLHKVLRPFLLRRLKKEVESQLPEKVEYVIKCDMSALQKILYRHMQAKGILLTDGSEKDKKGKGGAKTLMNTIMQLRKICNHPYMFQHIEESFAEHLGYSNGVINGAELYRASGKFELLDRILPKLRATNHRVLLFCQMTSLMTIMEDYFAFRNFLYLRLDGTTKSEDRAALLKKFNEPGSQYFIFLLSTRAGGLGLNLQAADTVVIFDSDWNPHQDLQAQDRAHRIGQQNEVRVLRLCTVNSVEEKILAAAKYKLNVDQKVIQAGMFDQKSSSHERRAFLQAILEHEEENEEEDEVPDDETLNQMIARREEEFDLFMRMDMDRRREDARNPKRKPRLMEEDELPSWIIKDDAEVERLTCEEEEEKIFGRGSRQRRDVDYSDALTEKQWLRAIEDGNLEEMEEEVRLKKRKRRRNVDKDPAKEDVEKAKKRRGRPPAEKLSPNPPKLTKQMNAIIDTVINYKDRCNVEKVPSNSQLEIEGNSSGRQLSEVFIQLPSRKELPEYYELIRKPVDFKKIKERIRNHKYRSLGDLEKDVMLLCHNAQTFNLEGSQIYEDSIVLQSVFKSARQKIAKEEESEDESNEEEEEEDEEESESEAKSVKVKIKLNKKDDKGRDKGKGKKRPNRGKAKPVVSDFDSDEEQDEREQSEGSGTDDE
# test_description: ATPase catalytic activity of BRM, ADP-Glo in vitro biochemical assay
# test_settings: ATPase catalytic activity, 30 nM BRM, 400 μM ATP, read-out: BRM IP50
pIC50: −log10 of the molar value.

// below: answered compounds
- COC[C@H](NC(=O)c1ccn(C(C)(C)C)c1)C(=O)Nc1nc(-c2ccc3c(F)cn(C)c(=O)c3c2)cs1 [Compound 561]: > 8.00
- COC[C@H](NC(=O)c1ccn(S(C)(=O)=O)c1)C(=O)Nc1nc(-c2cccc(N3CCC3)c2F)cs1 [Compound 573]: < 8.00
- COc1cc(F)cc(-c2csc(NC(=O)CNC(=O)c3ccn(S(C)(=O)=O)c3)n2)c1 [Compound 701]: > 8.00
- COC[C@H](NC(=O)c1ccn(S(C)(=O)=O)c1)C(=O)Nc1nc(-c2cccc(C#N)c2)cs1 [Compound 712]: < 8.00
- N#CC1(n2ccc(C(=O)NCC(=O)Nc3nc(-c4cccc(OC5CC5)c4F)cs3)c2)CC1 [Compound 556]: < 8.00
- CS(=O)(=O)n1ccc(C(=O)NCC(=O)Nc2nc(-c3cccc(N4CCC4)c3F)cs2)c1 [Compound 499]: > 8.00

pIC50 for CC(C)(C)n1ccc(C(=O)NCC(=O)Nc2nc(-c3cccc(N4CCN(c5cccnn5)CC4)n3)cs2)c1 [Compound 627] ?
< 8.00

Same question for CC(C)(C)n1ccc(C(=O)NCC(=O)Nc2nc(-c3cccc(N4CCC5(CC4)CC(F)C5)n3)cs2)c1 [Compound 628] please.
< 7.00

Also need CN(C)[C@H]1CCN(c2cccc(-c3csc(NC(=O)CNC(=O)c4ccn(C(C)(C)C)c4)n3)n2)C1 [Compound 623] , thanks.
< 7.00

How about CS(=O)(=O)n1ccc(C(=O)NCC(=O)Nc2nc(-c3cc(Cl)cc(C#N)c3)cs2)c1 [Compound 722] ?
< 8.00

====

# test_system: BRG-1 (Homo sapiens)
# Construct: made in house; host or cells: High Five insect cells
# Sequence (P51532 whole entry): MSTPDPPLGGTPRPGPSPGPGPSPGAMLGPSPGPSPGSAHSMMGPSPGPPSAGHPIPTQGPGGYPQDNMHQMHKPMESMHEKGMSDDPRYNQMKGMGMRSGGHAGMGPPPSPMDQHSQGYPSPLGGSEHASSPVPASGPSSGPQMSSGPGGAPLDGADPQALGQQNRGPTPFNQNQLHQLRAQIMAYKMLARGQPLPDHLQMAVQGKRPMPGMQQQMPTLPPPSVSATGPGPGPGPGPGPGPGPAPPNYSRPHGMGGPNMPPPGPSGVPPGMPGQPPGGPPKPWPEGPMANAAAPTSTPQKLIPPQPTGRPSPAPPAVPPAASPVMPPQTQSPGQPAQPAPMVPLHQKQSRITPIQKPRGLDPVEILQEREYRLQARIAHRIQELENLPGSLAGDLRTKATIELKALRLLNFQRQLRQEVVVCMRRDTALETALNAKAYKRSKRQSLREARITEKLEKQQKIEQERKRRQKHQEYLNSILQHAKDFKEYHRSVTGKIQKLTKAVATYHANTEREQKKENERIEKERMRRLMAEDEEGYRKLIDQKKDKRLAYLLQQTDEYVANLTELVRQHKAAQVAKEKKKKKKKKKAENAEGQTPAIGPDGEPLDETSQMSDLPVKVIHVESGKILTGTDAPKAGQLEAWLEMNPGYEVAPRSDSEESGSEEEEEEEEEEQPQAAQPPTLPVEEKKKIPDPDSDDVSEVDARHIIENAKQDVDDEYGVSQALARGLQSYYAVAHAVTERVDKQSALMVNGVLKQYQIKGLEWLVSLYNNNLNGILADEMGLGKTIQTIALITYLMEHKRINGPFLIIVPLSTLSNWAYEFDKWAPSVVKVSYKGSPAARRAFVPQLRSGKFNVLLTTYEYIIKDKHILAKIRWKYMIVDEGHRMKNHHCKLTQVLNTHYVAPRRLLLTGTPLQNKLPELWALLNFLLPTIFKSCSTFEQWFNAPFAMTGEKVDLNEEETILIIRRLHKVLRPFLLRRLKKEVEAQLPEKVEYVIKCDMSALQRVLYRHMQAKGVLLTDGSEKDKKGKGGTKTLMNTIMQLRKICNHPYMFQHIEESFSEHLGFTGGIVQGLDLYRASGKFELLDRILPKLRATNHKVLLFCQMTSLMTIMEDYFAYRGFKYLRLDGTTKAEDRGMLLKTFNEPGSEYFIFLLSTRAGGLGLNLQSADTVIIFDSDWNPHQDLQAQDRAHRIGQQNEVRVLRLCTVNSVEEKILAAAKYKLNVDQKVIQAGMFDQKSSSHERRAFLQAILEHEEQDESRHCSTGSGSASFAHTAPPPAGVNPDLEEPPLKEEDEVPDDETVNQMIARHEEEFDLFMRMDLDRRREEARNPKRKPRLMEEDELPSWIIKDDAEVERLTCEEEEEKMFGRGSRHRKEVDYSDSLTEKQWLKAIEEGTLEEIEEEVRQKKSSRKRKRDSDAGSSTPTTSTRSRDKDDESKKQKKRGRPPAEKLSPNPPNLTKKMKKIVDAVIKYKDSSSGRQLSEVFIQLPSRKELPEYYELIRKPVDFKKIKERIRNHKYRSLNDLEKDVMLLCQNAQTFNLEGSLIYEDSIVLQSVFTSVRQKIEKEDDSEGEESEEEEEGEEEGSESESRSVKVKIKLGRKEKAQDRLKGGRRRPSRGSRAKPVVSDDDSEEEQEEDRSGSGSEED
# test_description: ATPase catalytic activity of BRG-1, ADP-Glo in vitro biochemical assay
# test_settings: ATPase catalytic activity, 30 nM BRG-1, 400 μM ATP, read-out: BRG1 IP50 (μM)*
outcome_measure: IC50

A selection of reference data follows.
• CS(=O)(=O)n1ccc(C(=O)NCC(=O)Nc2nc(-c3cccc(-c4ccn(CC(=O)O)n4)c3)cs2)c1 = > 0.01 µM
• CC1(n2ccc(C(=O)NCC(=O)Nc3nc(-c4cccc(N5CCOCC5)n4)cs3)c2)COC1 = > 0.1 µM
• C[C@H]1CN(c2cccc(-c3csc(NC(=O)CNC(=O)c4ccn(S(C)(=O)=O)c4)n3)c2)CC[C@@H]1O = < 0.01 µM

Can you share its IC50? I mean this compound: CS(=O)(=O)n1ccc(C(=O)NCC(=O)Nc2nc(-c3cccc(N4CC[C@H](O)[C@@H](F)C4)c3)cs2)c1
< 0.01 µM

// same read-out, input: CNc1cccc(-c2csc(NC(=O)CNC(=O)c3ccn(C(C)(C)C)c3)n2)c1
> 0.1 µM

Also check COC[C@H](NC(=O)c1ccn(S(C)(=O)=O)c1)C(=O)Nc1nc(-c2cccc(-c3cc(C)nc(C)c3)c2)cs1
< 0.01 µM
